biological target: UniProt P00533
Sequence (P00533 whole entry): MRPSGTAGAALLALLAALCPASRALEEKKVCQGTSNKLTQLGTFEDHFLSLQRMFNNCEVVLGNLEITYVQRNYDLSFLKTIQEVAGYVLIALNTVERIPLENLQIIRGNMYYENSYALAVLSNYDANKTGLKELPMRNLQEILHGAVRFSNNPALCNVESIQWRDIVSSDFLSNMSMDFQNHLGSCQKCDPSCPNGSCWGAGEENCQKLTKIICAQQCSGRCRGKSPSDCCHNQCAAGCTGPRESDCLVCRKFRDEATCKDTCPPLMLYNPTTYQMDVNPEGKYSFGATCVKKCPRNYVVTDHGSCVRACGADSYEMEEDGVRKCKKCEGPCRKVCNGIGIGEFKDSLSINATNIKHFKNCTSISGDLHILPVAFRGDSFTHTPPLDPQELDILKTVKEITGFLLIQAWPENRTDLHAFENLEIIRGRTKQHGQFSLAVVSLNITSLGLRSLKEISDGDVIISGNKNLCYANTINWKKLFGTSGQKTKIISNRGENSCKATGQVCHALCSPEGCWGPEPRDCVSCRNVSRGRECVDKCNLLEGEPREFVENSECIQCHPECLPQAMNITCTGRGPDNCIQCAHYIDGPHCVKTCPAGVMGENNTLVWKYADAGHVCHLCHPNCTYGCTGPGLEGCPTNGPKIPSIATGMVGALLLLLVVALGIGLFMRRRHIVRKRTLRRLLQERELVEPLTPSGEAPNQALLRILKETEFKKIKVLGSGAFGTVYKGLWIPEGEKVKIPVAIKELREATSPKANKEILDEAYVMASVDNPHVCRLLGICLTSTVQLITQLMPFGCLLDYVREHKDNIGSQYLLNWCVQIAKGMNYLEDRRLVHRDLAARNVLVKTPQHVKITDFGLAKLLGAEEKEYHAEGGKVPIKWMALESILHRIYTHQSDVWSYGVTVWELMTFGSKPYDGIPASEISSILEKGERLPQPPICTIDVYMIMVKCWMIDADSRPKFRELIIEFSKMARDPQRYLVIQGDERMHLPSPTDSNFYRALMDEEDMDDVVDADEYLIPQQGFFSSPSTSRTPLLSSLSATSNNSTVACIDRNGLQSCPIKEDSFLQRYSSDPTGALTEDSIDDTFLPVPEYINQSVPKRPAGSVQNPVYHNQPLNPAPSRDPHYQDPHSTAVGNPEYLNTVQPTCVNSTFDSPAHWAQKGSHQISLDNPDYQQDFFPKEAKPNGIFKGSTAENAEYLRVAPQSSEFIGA
VALUE KIND: Kd (µM)
Give a bare numeral; the unit µM is implied.

Kd for UniProt P00533 with input Nc1ncnc2c1ncn2[C@@H]1O[C@H](CO)[C@@H](O)[C@H]1S equals 1

---

test: Affinity for mouse cyclic-AMP dependent Ser/Thr Kinase
VALUE KIND: Kd (µM)
Give a bare numeral; the unit µM is implied.

Previously resolved entries follow.
INSERT INTO results (compound, endpoint_unit, observed_value) VALUES
  ('Nc1ncnc2c1ncn2[C@@H]1O[C@H](CO)[C@@H](O)[C@H]1O [ADENOSINE]', 'µM', 35),
  ('Nc1ncnc2c1ncn2[C@@H]1O[C@H](COP(=O)(O)OP(=O)(O)O)[C@@H](O)[C@H]1O [ADENOSINE DIPHOSPHATE]', 'µM', 10);

Attention now shifts to the item below.
The measured Kd associated with Nc1ncnc2c1ncn2[C@@H]1O[C@H](COP(=O)(O)OP(=O)(O)OP(=O)(O)O)[C@@H](O)[C@H]1O [ADENOSINE TRIPHOSPHATE] reads 10

# credit: ChEMBL document CHEMBL1130008
